target: RIPK1 (Homo sapiens (Human))
Sequence (Q13546 1-327): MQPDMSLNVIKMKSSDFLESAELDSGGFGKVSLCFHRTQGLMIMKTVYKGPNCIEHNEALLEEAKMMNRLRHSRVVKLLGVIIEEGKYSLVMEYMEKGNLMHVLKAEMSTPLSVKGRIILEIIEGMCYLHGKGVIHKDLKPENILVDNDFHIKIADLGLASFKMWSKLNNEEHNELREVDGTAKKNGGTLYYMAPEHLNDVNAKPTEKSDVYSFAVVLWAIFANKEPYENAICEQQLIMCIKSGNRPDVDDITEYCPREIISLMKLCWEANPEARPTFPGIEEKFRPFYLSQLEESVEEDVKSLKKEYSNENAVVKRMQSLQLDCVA
pIC50: −log10 of the molar value.
measure: pIC50

Solved entries:
Cc1cc(=O)c(C(=O)Nc2cc(Cl)c3ncsc3c2)nn1-c1ccccc1 :: 5.93
Cc1cc(=O)c(C(=O)NCc2cc(F)cc(F)c2)nn1-c1ccccc1 :: 4.99
Cc1cc(=O)c(C(=O)Nc2cncc(Cl)c2)nn1-c1ccccc1 :: 6.41

I: Cc1c(Cl)c(=O)c(C(=O)NC2CCc3cc(Cl)ccc3N(C)C2=O)nn1-c1ccccc1 (stereo not drawn)
II: Cc1cc(=O)c(C(=O)Nc2c(C(C)C)n[nH]c2C(C)C)nn1-c1ccccc1
III: Cc1nccc(NC(=O)c2nn(-c3ccccc3)c(C)cc2=O)n1
IV: Cc1cc(=O)c(C(=O)Nc2c(F)cccc2C(C)C)nn1-c1ccccc1
Q) // sort entries: pIC50, high to low Form field (ranking): labels in requested order.
A) I, IV, III, II

I: Cc1cc(=O)c(C(=O)Nc2ccc(F)cc2)nn1-c1ccccc1
II: Cc1cc(=O)c(C(=O)Nc2cccc(Cl)c2F)nn1-c1ccccc1
Q) Which value of pIC50 is numerically greater: that of I or that of II ? State your choice using its label.
A) II

---

Each entry below carries its measured pIC50, system: RIPK1 (Homo sapiens (Human)).
pIC50: −log10 of the molar value.
measure: pIC50

Solved entries:
Cc1cc(=O)c(C(=O)NC(C)C2CC2)nn1-c1ccccc1 (stereo not drawn) :: 5.19
Cc1cc(=O)c(C(=O)Nc2ccccn2)nn1-c1ccc(Cl)cc1 :: 5.30
Cc1ccc(-n2nc(C(=O)N[C@H]3COc4cc(C#N)ccc4N(C)C3=O)c(=O)cc2C)cc1F :: 7.32
Cc1cc(=O)c(C(=O)NC2CCc3ccccc3NC2=O)nn1-c1ccc(Cl)cc1 (stereo not drawn) :: 7.52
C#CCNC(=O)c1nn(-c2ccccc2)c(C)cc1=O :: 5.80

A: Cc1noc(C)c1NC(=O)c1nn(-c2ccccc2)c(C)cc1=O
B: Cc1cc(=O)c(C(=O)Nc2ccccc2C2CC2)nn1-c1ccccc1
Q) Pick one, A or B : lowest reported pIC50. State your choice using its label.
A) B
(B: 4.81, A: 5.36)

1: Cc1cc(=O)c(C(=O)Nc2ccc(C#N)s2)nn1-c1ccccc1
2: Cc1cccc(NC(=O)c2nn(-c3ccccc3)c(C)cc2=O)n1
Q) Which value of pIC50 is numerically greater: that of 1 or that of 2 ? State your choice using its label.
A) 1
(1: 6.20, 2: 5.46)

---

Tested on: human monocytic cell line U937
Assay: Human U937 Cellular Necroptosis Assay
Assay type: cell-based
Settings: U-937; U937 cells stimulated with 25 ng/mL human TNFalpha and 25 μM z-VAD-FMK, 22 hr, viability by Cell Titer-Glo 2.0; average value across multiple runs; read-out: hU937 IC50
Description: Human U937 Cellular Necroptosis Assay The human monocytic cell line U937 (CRL-1593.2) was purchased from ATCC. […] After 22 hr, viability was assessed with the addition of 20 μL of Cell Titer-Glo 2.0 (Promega, Catalog #G9243). […] Luminescence was measured using a PerkinElmer Envision™ plate reader. IC50 values were calculated using a four-parameter logistic curve fit using Genedata Screener software. […]
measure: IC50 (nM)
// return numeric value only (unit: nM, not printed)

Solved entries:
Cc1c(Br)c(=O)c(C(=O)NC2CCc3cc(Br)ccc3NC2=O)nn1-c1ccccc1 (stereo not shown) :: 48
COc1ccc(-n2nc(C(=O)NC3CCc4ccccc4NC3=O)c(=O)cc2C)cc1 (stereo not shown) :: 124
Cc1ccc(-n2nc(C(=O)NC3CCc4ccccc4NC3=O)c(=O)cc2C)cc1 (stereo not shown) :: 50.2

# context switch: different compound, same IC50
Q) Which IC50 is listed for Cc1c(Br)c(=O)c(C(=O)NC2CCc3ccccc3NC2=O)nn1-c1ccccc1 (stereo not shown) ?
A) 141

Reference source: patent US11690850B2
